Provenance of the data: paper PMC9482650

molecular target: DLG1_1, Q12959; experiment: holdup assay; parameters: key: below the threshold = too weak to quantify, mostly under pKd 3.1 to 4; conditions: plain residues with an end cap or a label only (N-terminal biotin on a linker: ttds)
Measured pKd, listed per entry.
Please reply with the value in numeric form only.

Use the examples below as a reference point.
binder="GRLLGLETNV [ARHGEF26, Q96DR7]" measurement_name=pKd test_result=4.76
binder="NPDALPETLV [ARHGAP6, O43182]" measurement_name=pKd test_result=4.39
binder="SRSRRRETAL [HPV33-E6, P06427]" measurement_name=pKd test_result=4.5
binder="QRPYRRESEI [KCNJ12, Q14500]" measurement_name=pKd test_result=4.04
binder="KLVIKTETTV [RASSF6, Q6ZTQ3]" measurement_name=pKd test_result=4.88
binder="SSIDLWETAL [SLC15A5, A6NIM6]" measurement_name=pKd test_result=4.43

**Q:** Please give the measured pKd for this binder: GARVSKETPL [MAPK12, P53778]
**A:** 4.08

**Q:** Subsequent entry: KQVVPFSSSV [GDA, Q9Y2T3]
**A:** 3.89
